Tested on: Oryza sativa, (L.) Tebonnet
Test: Rice tolerance to post-transplant applications under flooded paddy conditions (Example 187), ORYSAT (Rice, Tebonnet)
Conditions: 0.2500 kg/ha, rated three to four weeks after treatment
test.readout: ORYSAT herbicidal rating (rice tolerance)

| compound | subject.of.test | reported.value |
| --- | --- | --- |
| CSCOCc1nsc2ccc(-n3c(=O)cc(C(F)(F)F)n(C)c3=O)cc12 [Example 484] | Oryza sativa, (L.) Tebonnet | 6.0 |
| C=CCOC(=O)C(C)(C)c1nsc2ccc(-n3c(=O)cc(C(F)(F)F)n(C)c3=O)cc12 [Example 491] | Oryza sativa, (L.) Tebonnet | 7.5 |
| COC(=O)COc1cc(C)ccc1-c1nsc2cc(F)c(-n3c(=O)cc(C(F)(F)F)n(C)c3=O)cc12 [Example 479] | Oryza sativa, (L.) Tebonnet | 9.0 |
| COC(=O)COc1cc(Cl)c(C)cc1-c1nsc2ccc(-n3c(=O)cc(C(F)(F)F)n(C)c3=O)cc12 [Example 493] | Oryza sativa, (L.) Tebonnet | 3.0 |
| Cn1c(C(F)(F)F)cc(=O)n(-c2ccc3snc(C(C)(C)C(=O)NS(C)(=O)=O)c3c2)c1=O [Example 488] | Oryza sativa, (L.) Tebonnet | 4.0 |
| Cc1ccccc1CS(=O)(=O)NC(=O)c1nsc2ccc(-n3c(=O)cc(C(F)(F)F)n(C)c3=O)cc12 [Example 465] | Oryza sativa, (L.) Tebonnet | 5.0 |
| COC(=O)c1nsc2cc(F)c(-n3c(=O)cc(C(F)(F)F)n(C)c3=O)cc12 [Example 513] | Oryza sativa, (L.) Tebonnet | 9.0 |

====

Test system: Monochoria vaginalis, Presl.
Assay: Preemergence weed control under flooded paddy conditions, MOOVA (Monochoria)
Assay type: in vivo
Details: Rate 0.0620 kg/ha; preemergence, flooded paddy; rated three to four weeks after treatment

| smiles.entry | subject.of.test | MOOVA herbicidal effect rating |
| --- | --- | --- |
| CNC.Cn1c(C(F)(F)F)cc(=O)n(-c2ccc3snc(COCC(=O)NS(C)(=O)=O)c3c2)c1=O | Monochoria vaginalis, Presl. | 0.0 |
| COC(=O)COc1c(-c2nsc3ccc(-n4c(=O)cc(C(F)(F)F)n(C)c4=O)cc23)ccc(C)c1C | Monochoria vaginalis, Presl. | 9.0 |
| Cn1c(C(F)(F)F)cc(=O)n(-c2ccc3snc(COCC(=O)O)c3c2)c1=O | Monochoria vaginalis, Presl. | 9.0 |
| Cc1nsc2ccc(-n3c(=O)c(Cl)c(C(F)(F)F)n(C)c3=O)cc12 | Monochoria vaginalis, Presl. | 0.0 |
| CCOc1ccc2sc(S(=O)(=O)NC(=O)COc3ccc(C)cc3-c3nsc4ccc(-n5c(=O)cc(C(F)(F)F)n(C)c5=O)cc34)nc2c1 | Monochoria vaginalis, Presl. | 0.0 |

====

System: Oryza sativa, (L.) Tebonnet
Experiment: Rice tolerance to post-transplant applications under flooded paddy conditions (Example 187), ORYSAT (Rice, Tebonnet); as to herbicidal effect rating ORYSAT: meaning of each grade not given here
Conditions: Rate 0.0320 kg/ha, rated 3-4 weeks after treatment

| compound | subject.of.test | herbicidal effect rating ORYSAT |
| --- | --- | --- |
| C=CS(=O)(=O)NC(=O)COc1ccc(C)cc1-c1nsc2ccc(-n3c(=O)cc(C(F)(F)F)n(C)c3=O)cc12 [Example 553] | Oryza sativa, (L.) Tebonnet | 3.0 |
| Cc1ccc(OC(C)(C)C(=O)OC(C)C)c(-c2nsc3ccc(-n4c(=O)cc(C(F)(F)F)n(C)c4=O)cc23)c1 [Example 547] | Oryza sativa, (L.) Tebonnet | 2.0 |
| Cc1ccc(OCC(=O)OCC(C)(C)Cc2ccccc2)c(-c2nsc3ccc(-n4c(=O)cc(C(F)(F)F)n(C)c4=O)cc23)c1 [Example 527] | Oryza sativa, (L.) Tebonnet | 2.0 |
| CCCCCCCCCOC(=O)COc1ccc(C)cc1-c1nsc2ccc(-n3c(=O)cc(C(F)(F)F)n(C)c3=O)cc12 [Example 519] | Oryza sativa, (L.) Tebonnet | 2.0 |
| Cc1ccc(OCC(=O)NS(=O)(=O)C(C)C)c(-c2nsc3ccc(-n4c(=O)cc(C(F)(F)F)n(C)c4=O)cc23)c1 [Example 560] | Oryza sativa, (L.) Tebonnet | 3.0 |
| CNC(=O)COc1ccc(C)cc1-c1nsc2ccc(-n3c(=O)cc(C(F)(F)F)n(C)c3=O)cc12 [Example 561] | Oryza sativa, (L.) Tebonnet | 2.5 |
| C=CS(=O)(=O)NC(=O)COc1ccccc1-c1nsc2ccc(-n3c(=O)cc(C(F)(F)F)n(C)c3=O)cc12 [Example 557] | Oryza sativa, (L.) Tebonnet | 6.0 |
| COCC(C)OC(=O)C(C)(C)Oc1ccc(C)cc1-c1nsc2ccc(-n3c(=O)cc(C(F)(F)F)n(C)c3=O)cc12 (centres unmarked) [Example 532] | Oryza sativa, (L.) Tebonnet | 0.0 |
| CCCS(=O)(=O)NC(=O)COc1ccc(C)cc1-c1nsc2ccc(-n3c(=O)cc(C(F)(F)F)n(C)c3=O)cc12 [Example 552] | Oryza sativa, (L.) Tebonnet | 4.0 |
| C#CC(C)OC(=O)C(C)(C)Oc1ccc(C)cc1-c1nsc2ccc(-n3c(=O)cc(C(F)(F)F)n(C)c3=O)cc12 (centres unmarked) [Example 531] | Oryza sativa, (L.) Tebonnet | 0.0 |
| CON(C)C(=O)/C=C/c1nsc2ccc(-n3c(=O)cc(C(F)(F)F)n(C)c3=O)cc12 [Example 565] | Oryza sativa, (L.) Tebonnet | 0.0 |
| CC(C)S(=O)(=O)NC(=O)COc1ccccc1-c1nsc2ccc(-n3c(=O)cc(C(F)(F)F)n(C)c3=O)cc12 [Example 555] | Oryza sativa, (L.) Tebonnet | 6.0 |
| CCCCCCC#CCCOC(=O)COc1ccc(C)cc1-c1nsc2ccc(-n3c(=O)cc(C(F)(F)F)n(C)c3=O)cc12 [Example 522] | Oryza sativa, (L.) Tebonnet | 2.5 |
| CNC(=O)COc1ccccc1-c1nsc2ccc(-n3c(=O)cc(C(F)(F)F)n(C)c3=O)cc12 [Example 562] | Oryza sativa, (L.) Tebonnet | 2.0 |
